// provenance: patent US6756359B2

System: S. pneumoniae Stpn_Erm S 4297
Assay: Antibacterial activity in vitro, MIC by broth microdilution
Format: cell-based, Streptococcus pneumoniae
Settings: Table 5, Strain ID J: S. pneumoniae Stpn_Erm S 4297
ENDPOINT NAME: MIC

Under S. pneumoniae Stpn_Erm S 4297: MIC value of CC[C@H]1OC(=O)[C@H](C)C(=O)[C@H](C)[C@@H](OC2O[C@H](C)C[C@H](N(C)C)[C@H]2O)[C@@](C)(OC)C[C@@H](C)C(=O)[C@H](C)[C@H]2N(CCCCn3cnc(-c4cnccn4)c3)C(=O)O[C@]12CC (some centres unmarked) ?
≦0.05

Under S. pneumoniae Stpn_Erm S 4297: MIC value of C=C[C@]12OC(=O)N(CCCCn3cnc(-c4cccnc4)c3)[C@@H]1[C@@H](C)C(=O)[C@H](C)C[C@@](C)(OC)[C@H](OC1O[C@H](C)C[C@H](N(C)C)[C@H]1O)[C@@H](C)C(=O)[C@@H](C)C(=O)O[C@@H]2CC (some centres unmarked) ?
≦0.05
